Cited source for all entries: patent US20200024330A1

Target: HIV-1 Env of isolate 93UG077 (HIV-1)
Experiment: cell-based or functional assay
attribute.measured: IC50 (µg/mL), pseudovirus neutralization
Quick reminder: number only, in µg/mL, skip the unit.

Problem: May I ask what IC50 (µg/mL), pseudovirus neutralization has been recorded for PGT-123 (antibody, V domains shown) VH: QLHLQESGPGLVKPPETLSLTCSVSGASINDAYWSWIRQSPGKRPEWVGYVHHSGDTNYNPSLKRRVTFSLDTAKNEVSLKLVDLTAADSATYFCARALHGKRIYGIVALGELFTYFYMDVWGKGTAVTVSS VL: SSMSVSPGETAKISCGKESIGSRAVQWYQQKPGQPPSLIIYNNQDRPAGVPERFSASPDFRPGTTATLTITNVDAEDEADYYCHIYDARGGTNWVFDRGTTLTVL ?
Solution: 0.028

Problem: May I ask what IC50 (µg/mL), pseudovirus neutralization has been recorded for PGT-127 (antibody, V domains shown) VH: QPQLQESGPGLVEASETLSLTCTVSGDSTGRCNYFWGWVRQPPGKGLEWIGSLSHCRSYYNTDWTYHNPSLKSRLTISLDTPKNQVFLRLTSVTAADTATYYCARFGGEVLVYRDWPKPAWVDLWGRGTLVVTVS VL: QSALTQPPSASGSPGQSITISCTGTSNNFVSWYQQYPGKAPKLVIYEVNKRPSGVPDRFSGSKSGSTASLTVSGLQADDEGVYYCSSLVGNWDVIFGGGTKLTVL ?
Solution: 0.055

Problem: May I ask what IC50 (µg/mL), pseudovirus neutralization has been recorded for PGT-126 (antibody, V domains shown) VH: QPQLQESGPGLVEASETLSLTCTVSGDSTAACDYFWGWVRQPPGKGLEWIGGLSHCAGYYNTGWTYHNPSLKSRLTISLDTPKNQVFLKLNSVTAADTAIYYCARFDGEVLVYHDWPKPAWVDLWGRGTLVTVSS VL: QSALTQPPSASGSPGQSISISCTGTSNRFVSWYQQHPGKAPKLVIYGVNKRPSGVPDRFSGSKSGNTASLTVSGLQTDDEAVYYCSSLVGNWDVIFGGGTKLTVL ?
Solution: 0.02

Problem: May I ask what IC50 (µg/mL), pseudovirus neutralization has been recorded for PGT-125 (antibody, V domains shown) VH: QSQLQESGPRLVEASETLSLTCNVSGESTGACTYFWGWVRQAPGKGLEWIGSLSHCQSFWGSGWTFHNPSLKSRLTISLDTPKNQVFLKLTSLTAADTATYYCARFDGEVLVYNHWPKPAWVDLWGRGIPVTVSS VL: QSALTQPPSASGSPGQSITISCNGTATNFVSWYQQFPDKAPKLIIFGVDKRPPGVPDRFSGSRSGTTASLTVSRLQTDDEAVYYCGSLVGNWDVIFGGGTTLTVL ?
Solution: 0.012
